Test system: adult rat dorsal root ganglia (DRG) neurons
assay-explanation: Ex vivo CGRP release assay in adult rat sensory neuronal cultures
Assay type: cell-based
measurement-setup: 1 μM; 30 nM capsaicin
measured-endpoint: capsaicin-evoked CGRP release

Qu. // returns reported capsaicin-evoked CGRP release for input CCCCC[C@H](O)/C=C/[C@H]1[C@H](O)CC(=O)[C@@H]1C/C=C\CCCC(=O)O [PGE2, prostaglandin E2, reference compound]
Ans. significantly augmented

Qu. Please give the result for CCCCC/C=C\C(O)C1OC1CCCCCCCC(=O)O (centres unmarked) [11H-9,10E-LA] too.
Ans. significantly augmented

Qu. Please give the result for CCCCCC1OC1C(O)/C=C\CCCCCCCC(=O)O (centres unmarked) [11H-12,13E-LA] too.
Ans. significantly augmented
